B1: glmS ribozyme (parent)
chain: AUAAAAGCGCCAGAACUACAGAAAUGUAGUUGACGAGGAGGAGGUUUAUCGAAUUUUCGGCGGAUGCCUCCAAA

variants of: B1; assay: self-cleavage kobs at 2500 uM GlcN6P; higher = faster cleavage; RNA array; conditions: with glucosamine-6-phosphate
Fewer inactive variants are shown than the library holds.
Entries annotated with measured self-cleavage kobs at 2500 uM GlcN6P

- var: "G26U C58U"
  self-cleavage kobs at 2500 uM GlcN6P: "6.46e-05 s⁻¹"
- var: "U30G G35A G43C"
  self-cleavage kobs at 2500 uM GlcN6P: "< 1e-05 s⁻¹"
- var: "A52C A53U U55A U65A"
  self-cleavage kobs at 2500 uM GlcN6P: "< 1e-05 s⁻¹"
- var: "G35C A39G U49G C50U"
  self-cleavage kobs at 2500 uM GlcN6P: "< 1e-05 s⁻¹"
- var: "U46G A53U"
  self-cleavage kobs at 2500 uM GlcN6P: "0.00253 s⁻¹"

*Q* So what does the record say about self-cleavage kobs at 2500 uM GlcN6P for C11U C67A C71U ?
*A* 5.18e-05 s⁻¹

*Q* So what does the record say about self-cleavage kobs at 2500 uM GlcN6P for U30G U56A ?
*A* 0.003 s⁻¹

*Q* So what does the record say about self-cleavage kobs at 2500 uM GlcN6P for G43U A48C ?
*A* < 1e-05 s⁻¹

*Q* So what does the record say about self-cleavage kobs at 2500 uM GlcN6P for G44U A53G ?
*A* 0.000223 s⁻¹

*Q* So what does the record say about self-cleavage kobs at 2500 uM GlcN6P for G35C G62U ?
*A* < 1e-05 s⁻¹

*Q* So what does the record say about self-cleavage kobs at 2500 uM GlcN6P for A15G G63A ?
*A* < 1e-05 s⁻¹
